Cited source for all entries: PubChem BioAssay AID1963959

- Tested on: T-47D spheroids with HUVEC/MSC, viability
- Experimental details: Anticancer human tumor T-47D cell line growth inhibition [PI3K];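 note: spheroids exposed to agents for seven days before reading; percent of DMSO vehicle control luminescence so 100% = untreated growth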
- Conditions: second compound 0.1 µM; first compound 0.316 µM; hits give low values
- Excerpt: Combinatorial screen of targeted agents with the PI3K inhibitors inavolisib, alpelisib, duvelisib, and copanlisib in multi-cell type tumor spheroids A high-throughput screen of multi-cell type tumor spheroids was designed to identify active combinations of targeted small molecules and PI3K pathway inhibitors. […] Compounds. […] If the clinical Cmax for an agent had not been determined, the highest concentration tested was 10 microM. […]
API: label(entry) gives Yes if the entry's viability, T/C is strictly smaller than 90%; on equality or larger values it gives No.

Compound	Class
CC(C)NCC(C(=O)N1CCN(c2ncnc3c2C(C)CC3O)CC1)c1ccc(Cl)cc1 (stereo unspecified) + CC(Nc1ccc2c(c1)OCCn1cc(N3C(=O)OCC3C(F)F)nc1-2)C(N)=O	Yes
CCCS(=O)(=O)Nc1ccc(F)c(C(=O)c2c[nH]c3ncc(-c4ccc(Cl)cc4)cc23)c1F + CC(Nc1ccc2c(c1)OCCn1cc(N3C(=O)OCC3C(F)F)nc1-2)C(N)=O	No
CCN1CCN(Cc2ccc(Nc3ncc(F)c(-c4cc(F)c5nc(C)n(C(C)C)c5c4)n3)nc2)CC1 + COc1c(OCCCN2CCOCC2)ccc2c3n(c(=NC(=O)c4cnc(N)nc4)nc12)CCN3	Yes
Cn1ncc(Cl)c1-c1cc(C(=O)NC(CN)Cc2cccc(F)c2)sc1Cl (stereo unspecified) + Cc1nc(NC(=O)N2CCCC2C(N)=O)sc1-c1ccnc(C(C)(C)C(F)(F)F)c1	Yes
C#Cc1c(F)ccc2cc(O)cc(-c3ncc4c(N5CC6CCC(C5)N6)nc(OCC56CCCN5CC(F)C6)nc4c3F)c12 (stereo unspecified) + Cc1nc(NC(=O)N2CCCC2C(N)=O)sc1-c1ccnc(C(C)(C)C(F)(F)F)c1	Yes
Cn1nccc1Nc1nccc(-c2ccn(C(CO)c3ccc(Cl)c(F)c3)c(=O)c2)n1 (stereo unspecified) + Cc1nc(NC(=O)N2CCCC2C(N)=O)sc1-c1ccnc(C(C)(C)C(F)(F)F)c1	No
CNC(=O)c1ccc(N2C(=S)N(c3ccc(C#N)c(C(F)(F)F)c3)C(=O)C2(C)C)cc1F + Cc1nc(NC(=O)N2CCCC2C(N)=O)sc1-c1ccnc(C(C)(C)C(F)(F)F)c1	No
CCN1CCN(Cc2ccc(Nc3ncc(F)c(-c4cc(F)c5nc(C)n(C(C)C)c5c4)n3)nc2)CC1 + CC(Nc1ccc2c(c1)OCCn1cc(N3C(=O)OCC3C(F)F)nc1-2)C(N)=O	Yes
Cn1ncc(Cl)c1-c1cc(C(=O)NC(CN)Cc2cccc(F)c2)sc1Cl (stereo unspecified) + CC(Nc1ncnc2nc[nH]c12)c1cc2cccc(Cl)c2c(=O)n1-c1ccccc1	Yes

----------
- Test system: T-47D spheroids with HUVEC/MSC, viability
- Experimental details: Anticancer human tumor T-47D cell line growth inhibition [PI3K];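 note: spheroids exposed to agents for seven days before reading; percent of DMSO vehicle control luminescence so 100% = untreated growth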
- Conditions: second compound 10 µM; first compound 0.001 µM; hits give low values

Compound	viability, T/C
CC(=O)c1c(C)c2cnc(Nc3ccc(N4CCNCC4)cn3)nc2n(C2CCCC2)c1=O + Cc1nc(NC(=O)N2CCCC2C(N)=O)sc1-c1ccnc(C(C)(C)C(F)(F)F)c1	39.8%
CC(C)n1nc(-c2ccc3oc(N)nc3c2)c2c(N)ncnc21 + CC(Nc1ncnc2nc[nH]c12)c1cc2cccc(Cl)c2c(=O)n1-c1ccccc1	75.1%
CC(C)n1nc(-c2ccc3oc(N)nc3c2)c2c(N)ncnc21 + Cc1nc(NC(=O)N2CCCC2C(N)=O)sc1-c1ccnc(C(C)(C)C(F)(F)F)c1	40.2%
Cn1ncnc1[C@H]1c2n[nH]c(=O)c3cc(F)cc(c23)N[C@@H]1c1ccc(F)cc1 + Cc1nc(NC(=O)N2CCCC2C(N)=O)sc1-c1ccnc(C(C)(C)C(F)(F)F)c1	34.8%
CC(=O)c1c(C)c2cnc(Nc3ccc(N4CCNCC4)cn3)nc2n(C2CCCC2)c1=O + CC(Nc1ncnc2nc[nH]c12)c1cc2cccc(Cl)c2c(=O)n1-c1ccccc1	76.3%
Cn1ncnc1[C@H]1c2n[nH]c(=O)c3cc(F)cc(c23)N[C@@H]1c1ccc(F)cc1 + CC(Nc1ncnc2nc[nH]c12)c1cc2cccc(Cl)c2c(=O)n1-c1ccccc1	81.7%
